Molecular target: T1, human CD4, cell-expressed (human, UniProt P01730 26-458)
T1 construct: whole, on cells
Assay: flow cytometry on activated T cells of donor D838 (very high CD4, moderate IL12R), upper left panel
Below, each entry is listed with its recorded EC50 (read off the curve).

IL12Rb2#1-35GS-CD4#8 (bispecific antibody, defined by its make-up (Nb1-Nb2)) EVQLVESGGRLVQAGDSLRLSCAASGRTFISYRMGWFRQAPGKEREFVAALRWSSSNIDYTYYADSVKGRFSISGDYAKNTVYLQMNSLKAEDTAVYYCAASTRWGVMESDTEYTSWGQGTLVTVSSGGGGSGGGGSGGGGSGGGGSGGGGSGGGGSGGGGSEVQLVESGGGSVQPGGSLTLSCGTSGRTFNVMGWFRQAPGKEREFVAAVRWSSTGIYYTQYADSVKSRFTISRDNAKNTVYLEMNSLKPEDTAVYYCAADTYNSNPARWDGYDFRGQGTLVTVSS = ~1 nM
CD4#8-35GS-IL12Rb2#2 (bispecific antibody, defined by its make-up) EVQLVESGGGSVQPGGSLTLSCGTSGRTFNVMGWFRQAPGKEREFVAAVRWSSTGIYYTQYADSVKSRFTISRDNAKNTVYLEMNSLKPEDTAVYYCAADTYNSNPARWDGYDFRGQGTLVTVSSGGGGSGGGGSGGGGSGGGGSGGGGSGGGGSGGGGSEVQLVESGGRLVQAGDSLRLSCAASGRTFTSYRMGWFRQAPGKEREFVSALRWSSGNIDYTYYADSVKGRFSISGDYAKNTVYLQMNSLKAEDTAVYYCAASTRWGVMESDTEYTSWGQGTLVTVSS = ~1 nM

Let's switch to this binder now.
Lookup: Output measured EC50 (read off the curve) for this item: CD4#8-35GS-IL12Rb2#1 (bispecific antibody, defined by its make-up) EVQLVESGGGSVQPGGSLTLSCGTSGRTFNVMGWFRQAPGKEREFVAAVRWSSTGIYYTQYADSVKSRFTISRDNAKNTVYLEMNSLKPEDTAVYYCAADTYNSNPARWDGYDFRGQGTLVTVSSGGGGSGGGGSGGGGSGGGGSGGGGSGGGGSGGGGSEVQLVESGGRLVQAGDSLRLSCAASGRTFISYRMGWFRQAPGKEREFVAALRWSSSNIDYTYYADSVKGRFSISGDYAKNTVYLQMNSLKAEDTAVYYCAASTRWGVMESDTEYTSWGQGTLVTVSS
Found: ~1 nM
